molecular target: T1, His-tagged P3028 (human, also: His-tag, terminus and sequence not given here); test: PEPSCAN chip ELISA, His-P3028 in solution;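 also: score is the raw OD at 405 nm from peroxidase colour with ABTS, imaged by CCD camera before and after staining, with wells showing air bubbles set to zero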
T1 construct: in solution at 0.5 ug/mL over the peptide cards; found with anti-His-tag antibody and rabbit anti-mouse peroxidase (rampo); also called PGE73; not shown: His-tag
T1 peptide: VFDEFKPLVEEPQNLIK
No end group written: not given here.
READOUT TYPE: RAMPO Score (rampo score)
Answer in rampo score, number only, no unit symbol.

# annotated cases, reported RAMPO Score shown
[
  {
    "BINDER": "KKLDTFFVKLSLGTER [SEQ ID NO 363]",
    "RECORDED NUMBER": 531
  },
  {
    "BINDER": "KKLDTFFVKLSLPTER [SEQ ID NO 369]",
    "RECORDED NUMBER": 696
  },
  {
    "BINDER": "KKLDTSFVKLSLFTER [SEQ ID NO 401]",
    "RECORDED NUMBER": 432
  }
]

Could you now consider this next binder?
Record summary for KKLDPFFVKLSLFTER [SEQ ID NO 307] : reported RAMPO Score = 427

Value source: patent US20170298096A1
